Sourced from the OPERA property sets (Mansouri et al. 2018)

Threshold 200 °C: boiling point strictly smaller gives true, otherwise false.

[
  {
    "Molecule": "CCC(C)CC",
    "Class Label": "true"
  },
  {
    "Molecule": "O=[N+]([O-])c1ccccc1-c1ccccc1",
    "Class Label": "false"
  },
  {
    "Molecule": "CCNc1nc(NC(C)C)nc(SC)n1",
    "Class Label": "false"
  },
  {
    "Molecule": "Nc1cccc(C(F)(F)F)c1",
    "Class Label": "true"
  },
  {
    "Molecule": "CNC(=O)Oc1cccc2ccccc12",
    "Class Label": "false"
  },
  {
    "Molecule": "O=COC1CCCCC1",
    "Class Label": "true"
  },
  {
    "Molecule": "Nc1cc(Cl)cc(C(=O)O)c1Cl",
    "Class Label": "false"
  },
  {
    "Molecule": "Nc1ccncc1",
    "Class Label": "false"
  },
  {
    "Molecule": "C=CCCCCCCCCCCCCCCCCCCCC",
    "Class Label": "false"
  },
  {
    "Molecule": "CC(C)OC(=O)C(Cl)(Cl)Cl",
    "Class Label": "true"
  },
  {
    "Molecule": "O=CC=Cc1ccccc1",
    "Class Label": "false"
  },
  {
    "Molecule": "COc1ccccc1C=O",
    "Class Label": "false"
  },
  {
    "Molecule": "CC(C)C(C)C(C)(C)C (stereo not drawn)",
    "Class Label": "true"
  },
  {
    "Molecule": "CCCOCC(C)C",
    "Class Label": "true"
  },
  {
    "Molecule": "Clc1ccc(Br)c(Cl)c1",
    "Class Label": "false"
  },
  {
    "Molecule": "COC1CCC=CO1 (stereo not drawn)",
    "Class Label": "true"
  },
  {
    "Molecule": "NCCNCCN",
    "Class Label": "false"
  },
  {
    "Molecule": "C=C[Si](C=C)(C=C)C=C",
    "Class Label": "true"
  },
  {
    "Molecule": "c1ccc(-c2noc(-c3ccccc3)n2)cc1",
    "Class Label": "false"
  },
  {
    "Molecule": "FC(F)OCC(F)(F)F",
    "Class Label": "true"
  },
  {
    "Molecule": "C=COCC(F)(F)F",
    "Class Label": "true"
  },
  {
    "Molecule": "CC(=O)c1cccc2ccccc12",
    "Class Label": "false"
  },
  {
    "Molecule": "Oc1ccccc1-c1nc2ccccc2o1",
    "Class Label": "false"
  },
  {
    "Molecule": "CCC(=O)Cc1ccccc1",
    "Class Label": "false"
  },
  {
    "Molecule": "C=CC=CC#N",
    "Class Label": "true"
  },
  {
    "Molecule": "CCOCCOCCOC(C)=O",
    "Class Label": "false"
  },
  {
    "Molecule": "Cc1cc(C)[nH]n1",
    "Class Label": "false"
  },
  {
    "Molecule": "CCCCCCCCC",
    "Class Label": "true"
  },
  {
    "Molecule": "Clc1cccc(Br)c1Cl",
    "Class Label": "false"
  },
  {
    "Molecule": "CCCCN=C=O",
    "Class Label": "true"
  },
  {
    "Molecule": "COCC(F)F",
    "Class Label": "true"
  },
  {
    "Molecule": "CCCC(N)=O",
    "Class Label": "false"
  },
  {
    "Molecule": "CCC",
    "Class Label": "true"
  },
  {
    "Molecule": "CCCCC(=O)C(C)C",
    "Class Label": "true"
  },
  {
    "Molecule": "CCN(C)CC",
    "Class Label": "true"
  },
  {
    "Molecule": "Cc1cc(Br)ccc1N",
    "Class Label": "false"
  },
  {
    "Molecule": "C1CCNC1",
    "Class Label": "true"
  }
]
